For each entry below, report its MIC90 value.
System: Fonsecaea monophora
Assay Notes: Antimicrobial activity against Fonsecaea monophora isolates after 72 hrs by CLSI M38-A2 protocol method
Format: functional
Starred links: 1 amine or outer side, 2 acyl side, 3 side chain; linkers in the order of their positions; H or OH if unused. Positions of bridges follow the written chain, without caps; N, C: chain ends. Non-standard residues stand in square brackets, D forms with d. Residues, ends and D or L forms follow the SMILES beside them. *: point of attachment. pTerphenylCO(4''-OnC5H11) = CCCCCOc1ccc(-c2ccc(-c3ccc(C(=O)*)cc3)cc2)cc1; Orn(4R-OH,5R-OH) = O=C([C@H](C[C@@H](O)[C@@H](O)N[*:3])N[*:1])[*:2]; hTyr(3S-OH,4S-OH) = N[C@H](C(=O)O)[C@H](O)[C@@H](O)c1ccc(O)cc1; Pro(3S-OH,4S-Me) = C[C@H]1CN[C@H](C(=O)O)[C@H]1O; Hyp = O=C(O)[C@@H]1C[C@@H](O)CN1
One number for each entry, in µg/mL.

C[C@@H](c1nc(-c2ccc(C#N)cc2)cs1)[C@](O)(Cn1cncn1)c1cc(F)ccc1F	0.25

Could I get MIC90 for every one of these entries?
1. CCCCCOc1ccc(-c2ccc(-c3ccc(C(=O)N[C@H]4C[C@@H](O)[C@@H](O)NC(=O)[C@@H]5[C@@H](O)[C@@H](C)CN5C(=O)[C@H]([C@@H](C)O)NC(=O)[C@H]([C@H](O)[C@@H](O)c5ccc(O)cc5)NC(=O)[C@@H]5C[C@@H](O)CN5C(=O)[C@H]([C@@H](C)O)NC4=O)cc3)cc2)cc1 [ANIDULAFUNGIN] ({pTerphenylCO(4''-OnC5H11)}-[Orn(4R-OH,5R-OH)]T[Hyp][hTyr(3S-OH,4S-OH)]T[Pro(3S-OH,4S-Me)]; lactam 1-C)
2. C[C@@H]1[C@H](O)[C@@H](C)/C=C/C=C/C=C/C=C/C=C/C=C/C=C/[C@H](O[C@@H]2O[C@H](C)[C@@H](O)[C@H](N)[C@@H]2O)C[C@@H]2O[C@](O)(C[C@@H](O)C[C@@H](O)[C@H](O)CC[C@@H](O)C[C@@H](O)CC(=O)O[C@H]1C)C[C@H](O)[C@H]2C(=O)O

Out:
1: 8; 2: 2

---

For each of the compounds below, state its MIC90.
System: Fonsecaea monophora
Assay Notes: Antimicrobial activity against Fonsecaea monophora isolates after 72 hrs by CLSI M38-A2 protocol method
Type: functional
Numbers only, in µg/mL.

CC[C@@H]([C@H](C)O)n1ncn(-c2ccc(N3CCN(c4ccc(OC[C@@H]5CO[C@@](Cn6cncn6)(c6ccc(F)cc6F)C5)cc4)CC3)cc2)c1=O [POSACONAZOLE]	0.063
CC[C@H](C)C[C@H](C)CCCCCCCCC(=O)N[C@H]1C[C@@H](O)[C@@H](NCCN)NC(=O)[C@@H]2[C@@H](O)CCN2C(=O)[C@H]([C@H](O)CCN)NC(=O)[C@H]([C@H](O)[C@@H](O)c2ccc(O)cc2)NC(=O)[C@@H]2C[C@@H](O)CN2C(=O)[C@H]([C@@H](C)O)NC1=O [CASPOFUNGIN]	2
OC(Cn1cncn1)(Cn1cncn1)c1ccc(F)cc1F [FLUCONAZOLE]	32
CCC(C)n1ncn(-c2ccc(N3CCN(c4ccc(OCC5COC(Cn6cncn6)(c6ccc(Cl)cc6Cl)O5)cc4)CC3)cc2)c1=O (stereo not given) [ITRACONAZOLE]	0.125

Alright, here's another compound for you.
Looking up C[C@@H](c1ncncc1F)[C@](O)(Cn1cncn1)c1ccc(F)cc1F [VORICONAZOLE] , I see its MIC90 listed as 0.125

---

Test system: Fonsecaea pedrosoi
Assay Notes: Antimicrobial activity against Fonsecaea pedrosoi isolates after 72 hrs by CLSI M38-A2 protocol method
Type: functional
Measurement Kind: MIC50 (µg/mL)
Give bare numbers, in µg/mL.

Some molecules with recorded MIC50:
C[C@@H](c1ncncc1F)[C@](O)(Cn1cncn1)c1ccc(F)cc1F [VORICONAZOLE]	0.5
CC[C@@H]([C@H](C)O)n1ncn(-c2ccc(N3CCN(c4ccc(OC[C@@H]5CO[C@@](Cn6cncn6)(c6ccc(F)cc6F)C5)cc4)CC3)cc2)c1=O [POSACONAZOLE]	0.063
CCC(C)n1ncn(-c2ccc(N3CCN(c4ccc(OCC5COC(Cn6cncn6)(c6ccc(Cl)cc6Cl)O5)cc4)CC3)cc2)c1=O (stereo not given) [ITRACONAZOLE]	0.063
CC[C@H](C)C[C@H](C)CCCCCCCCC(=O)N[C@H]1C[C@@H](O)[C@@H](NCCN)NC(=O)[C@@H]2[C@@H](O)CCN2C(=O)[C@H]([C@H](O)CCN)NC(=O)[C@H]([C@H](O)[C@@H](O)c2ccc(O)cc2)NC(=O)[C@@H]2C[C@@H](O)CN2C(=O)[C@H]([C@@H](C)O)NC1=O [CASPOFUNGIN]	4

Tested on Fonsecaea pedrosoi, the item C[C@@H](c1nc(-c2ccc(C#N)cc2)cs1)[C@](O)(Cn1cncn1)c1cc(F)ccc1F [ISAVUCONAZOLE] showed MIC50 equal to 0.25

---

System: Fonsecaea
Assay Notes: Antimicrobial activity against Fonsecaea nubica isolates after 72 hrs by CLSI M38-A2 protocol method
Type: functional
Would you kindly list MIC90 for each of these molecules?
One number for each entry, in µg/mL.

Consider the worked cases shown below.
CC[C@@H]([C@H](C)O)n1ncn(-c2ccc(N3CCN(c4ccc(OC[C@@H]5CO[C@@](Cn6cncn6)(c6ccc(F)cc6F)C5)cc4)CC3)cc2)c1=O	0.063
C[C@@H](c1ncncc1F)[C@](O)(Cn1cncn1)c1ccc(F)cc1F	0.5

Now examine the next entry.
Item: `CC[C@H](C)C[C@H](C)CCCCCCCCC(=O)N[C@H]1C[C@@H](O)[C@@H](NCCN)NC(=O)[C@@H]2[C@@H](O)CCN2C(=O)[C@H]([C@H](O)CCN)NC(=O)[C@H]([C@H](O)[C@@H](O)c2ccc(O)cc2)NC(=O)[C@@H]2C[C@@H](O)CN2C(=O)[C@H]([C@@H](C)O)NC1=O` | System: Fonsecaea | MIC90: 4

---

Test system: Fonsecaea
Assay Notes: Antimicrobial activity against Fonsecaea nubica isolates after 72 hrs by CLSI M38-A2 protocol method
Type: functional
Measurement Kind: MIC90 (µg/mL)
Numbers only, in µg/mL.

In the examples that follow, each entry is paired with its recorded MIC90.
C[C@@H](c1nc(-c2ccc(C#N)cc2)cs1)[C@](O)(Cn1cncn1)c1cc(F)ccc1F [ISAVUCONAZOLE]	0.5
CCC(C)n1ncn(-c2ccc(N3CCN(c4ccc(OCC5COC(Cn6cncn6)(c6ccc(Cl)cc6Cl)O5)cc4)CC3)cc2)c1=O (centres undefined) [ITRACONAZOLE]	0.25
C[C@@H]1[C@H](O)[C@@H](C)/C=C/C=C/C=C/C=C/C=C/C=C/C=C/[C@H](O[C@@H]2O[C@H](C)[C@@H](O)[C@H](N)[C@@H]2O)C[C@@H]2O[C@](O)(C[C@@H](O)C[C@@H](O)[C@H](O)CC[C@@H](O)C[C@@H](O)CC(=O)O[C@H]1C)C[C@H](O)[C@H]2C(=O)O [AMPHOTERICIN B]	2

Next, consider the following molecule.
# MIC90 of OC(Cn1cncn1)(Cn1cncn1)c1ccc(F)cc1F [FLUCONAZOLE] = 32

---

Tested on: Fonsecaea
Assay Notes: Antimicrobial activity against Fonsecaea nubica isolates after 72 hrs by CLSI M38-A2 protocol method
Format: functional
Starred links: 1 amine or outer side, 2 acyl side, 3 side chain; linkers in the order of their positions; H or OH if unused. Positions of bridges follow the written chain, without caps; N, C: chain ends. Non-standard residues stand in square brackets, D forms with d. Residues, ends and D or L forms follow the SMILES beside them. *: point of attachment. pTerphenylCO(4''-OnC5H11) = CCCCCOc1ccc(-c2ccc(-c3ccc(C(=O)*)cc3)cc2)cc1; Orn(4R-OH,5R-OH) = O=C([C@H](C[C@@H](O)[C@@H](O)N[*:3])N[*:1])[*:2]; hTyr(3S-OH,4S-OH) = N[C@H](C(=O)O)[C@H](O)[C@@H](O)c1ccc(O)cc1; Pro(3S-OH,4S-Me) = C[C@H]1CN[C@H](C(=O)O)[C@H]1O; Hyp = O=C(O)[C@@H]1C[C@@H](O)CN1
Measurement Kind: MIC90 (µg/mL)
One number for each entry, in µg/mL.

Measured MIC90 of CCCCCOc1ccc(-c2ccc(-c3ccc(C(=O)N[C@H]4C[C@@H](O)[C@@H](O)NC(=O)[C@@H]5[C@@H](O)[C@@H](C)CN5C(=O)[C@H]([C@@H](C)O)NC(=O)[C@H]([C@H](O)[C@@H](O)c5ccc(O)cc5)NC(=O)[C@@H]5C[C@@H](O)CN5C(=O)[C@H]([C@@H](C)O)NC4=O)cc3)cc2)cc1 [ANIDULAFUNGIN] ({pTerphenylCO(4''-OnC5H11)}-[Orn(4R-OH,5R-OH)]T[Hyp][hTyr(3S-OH,4S-OH)]T[Pro(3S-OH,4S-Me)]; lactam 1-C) : 8
